experimental-protocol: yeast display, Sf9 membrane polyspecificity reagent, FACS + sequencing; frameworks hold sequencing errors
property: polyreactivity (PSR sort gate)

So what does the record say about polyreactivity (PSR sort gate) for QVQLVESGGGLVQAGGILRLSCDASGRIFYSYAMGWYRQAHGKERVLVAAIDESVGSKYYADSVKGRFTISRDNAKNTVYLHMNSLKREDTAVYYCAADYLLVLFYYWGQGTQVTVSS ?
low polyreactivity

So what does the record say about polyreactivity (PSR sort gate) for QGQRVESGGVLVQAGGSLRLRCAASGSTFSRYDMGWYRQAPGKERELVATITRAGRTYYADSVKGRFTISRDNAKNTVYLQMNSLIPEDTAVYYCAAELYYWTYVRFDYWGQGTQVTVSS ?
low polyreactivity

So what does the record say about polyreactivity (PSR sort gate) for QVQLVESGGGLVQAGGSLRLSCAASGSTFRWYAMGWYRQAPGKERELVASISGSGGSTYYADSVKGRFTISRDNAKNTVYLQMNSLKPEDTAVYYCNKRYFTYLGEHTVGYWGQGTQVTVSS ?
high polyreactivity

So what does the record say about polyreactivity (PSR sort gate) for QVQLVESGGGLVQAGGSLRLSCAASGLIFSNNAMGWYRQAPGKERELVAAITSSGSRTYYADSVKGRFTISRDNAKNTVYLEMNRLKPEDTAVYYCAAYEVPYQRRYGYWGQGTQVTVSS ?
high polyreactivity

So what does the record say about polyreactivity (PSR sort gate) for QVQLVESGGGLVQAGGSLRLSCAASGRTFRWNAMGWYRQAPGKERELVASITVNGGSTSYADSVKGRFTISRDNAKNTVYLQMNSLKPEDTAVYYCNAYYTYWYPRYDYWGQGTQVTVSS ?
low polyreactivity

Continuing:
So what does the record say about polyreactivity (PSR sort gate) for QVQLVESGGGLVQAGGSLRLSCAASGRTFSHNAMGWYRQAPGKERELVATISWNGGRTYYADSVKGRFTISRDNAKNTVYLQMNSLKPEDTAVYYCADDRIWVLYRTYFSKYGYWGQGTQVTVSS ?
high polyreactivity

So what does the record say about polyreactivity (PSR sort gate) for QVQLVESGGGFVQAGGSLRLSCAASVIFGYYAMGWYSQAPGKERELVAAINWRGDSTYYADSVKGRFTISRDNAKNTVYLQMNSLKPEDTAVYYCAAQRRDIALLYDYWGQGTQVTLSS ?
low polyreactivity

---

experimental-protocol: yeast display, Sf9 membrane polyspecificity reagent, FACS + sequencing; frameworks hold sequencing errors
property: polyreactivity (PSR sort gate)

Solved cases below.
So what does the record say about polyreactivity (PSR sort gate) for QVQLVESGGGLVQAGGSLRLSCAASGFTFYKYAMGWYRQAPGKEREFVAAISSSGDSTYYADSVKGRFTISRDNAKNTVYLQMNSLKPEDTAVYYCAARRRGTSTTWGQGTQVTVSS ?
high polyreactivity

So what does the record say about polyreactivity (PSR sort gate) for QVQLVESGGGLVQAGGSLRLSCAASGSSFVYNVMGWYRPAPGKERELVAAIRWRGGSTYADSVKGRFTISRDNAKNTVYLQMNSLKPEDTAVYYCAAGIPRYWYAGHYDYWGQGTQVTVSS ?
low polyreactivity

So what does the record say about polyreactivity (PSR sort gate) for QVQLVESGRGLVQAGGSLRLSCAASGRTLRIYAMGWYRQAPGKERELVAAITSSGRTNYADSVKGRFTISRDNAKNTVYLQMNSLKPEDTAVYYCAAVTPAVNYFRAASGYYYWGQGTQVTVSS ?
low polyreactivity

So what does the record say about polyreactivity (PSR sort gate) for QVHLVESGGGLVQAGGSLRLSCAASGYIFGYYAMGWYRQAPGKERELVAAISQGGGDTYYADSVKGRFTISRDNAKYTVYLQMNSLKPEDTAVYYCAADYEQSYVLTGTFKYDYWGQGTQVTVSS ?
low polyreactivity

So what does the record say about polyreactivity (PSR sort gate) for QVQLVESGGGLVQAGGSLRLSCAASGSTFSVNAMGRYRQATGKERELVATISGGITNYADSVKGRFTISRDNAKNTVYLQMNSLKPEDTAVYYCNTAYRHIWVTWAAYDYWGQGTQVTVSS ?
low polyreactivity

So what does the record say about polyreactivity (PSR sort gate) for QVQLVESGGGLVQAGGSLRLSCAASGFTFGRYAMGWYRQAPGKERELVAAISYSGGSTYYADSVKGRFTISRDNAKNTVYLQMNSLKPEDTAVYYCAARDSYWSVYYWGQGTQVTVSS ?
high polyreactivity

So what does the record say about polyreactivity (PSR sort gate) for QVQLVESGGGLVQAGGSLRLSCAASGRIFWANAMGWYRQAPGKERELVAAINRRTGITYYADSVKGRFTISRDNAKNTVYLQMNSLNPEDTAVYYCAAARGKDGYSGQGTQVTVSS ?
high polyreactivity

Could you now consider this next sequence?
So what does the record say about polyreactivity (PSR sort gate) for QVQLVESGGGLVQAGGSLRLSCAASGLTFVYYAMGWYRQAPGKEMELVAAITSGGTTHYADSVKGRFTISRDNAKNTVYLQMNSLKPEDTAVYYCAATLGRWKRTYGYWGQGTQVTVSS ?
high polyreactivity
